# Organism: Rattus norvegicus
# assay-name: Open TG-GATES - Regimen: Daily Repeat
# Assay type: toxicity, organism-based, Sprague-Dawley
# Parameters: regimen Daily Repeat, gender Male, age 6 weeks
# assay-conditions: in vivo, po, 1000 mg/kg, […], tissue Blood, route gavage, dose level High, time 14 day
Below, each entry is listed alongside its reported Eos.
Write the value in % as a bare number.

1. O=C(N[C@H](CO)[C@H](O)c1ccc([N+](=O)[O-])cc1)C(Cl)Cl [CHLORAMPHENICOL] | 1
2. CC(C)(S)[C@@H](N)C(=O)O [PENICILLAMINE] | 1.2
3. CCN1CCCC1CNC(=O)c1cc(S(N)(=O)=O)ccc1OC (centres undefined) [SULPIRIDE] | 1

Next, consider the following molecule.
// query Tell me the measured Eos of O=C(O)c1cccnc1 [NIACIN] , please.
// result 0.6
